TARGET_ENTITY: T1, MHC class I allele A*0301 (bound via biotin to streptavidin-coated plate)
T1 construct: iTopia MHC class I monomer on the plate; placeholder peptide and b2M removed, then reconstituted with test peptide and fresh b2M; also called A3; HLA A3
ASSAY_DETAILS: iTopia peptide binding assay
Hi there, I'd appreciate the recorded % of positive control peptide binding for every entry that follows.
# number only, unit % dropped from output

# % of positive control peptide binding of LPSLRQLDL (also called Peptide No 71) [5T4 9 mer peptide 71 LPSLRQLDL] = 0

# % of positive control peptide binding of TDLPAYVRN (also called Peptide No 44) [5T4 9 mer peptide 44 TDLPAYVRN] = 1

# % of positive control peptide binding of LPSLRHLDL (also called Peptide No 117) [5T4 9 mer peptide 117 LPSLRHLDL] = 1
